Field: CC50. Provide a value for each of the compounds that follow.
- Tested on: 2.2.15 cells
- Protocol Description: neutral red dye uptake cytotoxicity
- Type: cell-based
- Condition Details: 9 days treatment, read-out: 50% Cell Death CC50
Report only the number, with the unit µM understood.

Recorded CC50 of Cc1ccc(Nc2nc(NN=Cc3ccc(Cl)cc3)nc(N3CCOCC3)n2)cc1Cl [Compound 196] , please.
381

Next entry: COc1ccc(Nc2nc(NCc3cccc([N+](=O)[O-])c3)nc(NCc3cc(F)ccc3F)n2)cc1OC [Compound 225]
281

Next entry: Oc1ccc(Nc2nc(Nc3cccc(C(F)(F)F)c3)nc(N3CCOCC3)n2)cc1 [Compound 53]
72

Next entry: CNc1nc(NN=Cc2ccccc2[N+](=O)[O-])nc(Nc2ccccc2)n1 [Compound 65]
17

Next entry: O=[N+]([O-])c1ccc(Nc2nc(NCc3ccccc3)nc(NN=Cc3ccccc3)n2)cc1 [Compound 24]
75

Next entry: COc1ccc(Nc2nc(NN=Cc3cc(Br)cc(Br)c3O)nc(N3CCOCC3)n2)cc1 [Compound 200]
309

Next entry: COc1ccc(C=NNc2nc(Nc3ccc([N+](=O)[O-])cc3)nc(N3CCCCC3)n2)cc1 [Compound 44]
285

Next entry: COc1c(C=NNc2nc(NCc3ccccc3)nc(Nc3ccccc3)n2)cccc1[N+](=O)[O-] [Compound 162]
436

Next entry: COc1ccc(Nc2nc(NN=Cc3ccc(Cl)cc3)nc(Nc3ccccc3)n2)cc1 [Compound 22]
47

Next entry: FC(F)(F)c1cccc(Nc2nc(NN=Cc3ccc(Cl)cc3)nc(N3CCOCC3)n2)c1 [Compound 120]
45

Next entry: Cc1ccc(Nc2nc(NN=Cc3ccc(Cl)cc3)nc(Nc3ccccc3)n2)c(C)c1 [Compound 42]
237

---

- Tested on: 2.2.15 cells
- Protocol Description: neutral red dye uptake cytotoxicity
- Assay type: cell-based
- Condition Details: 9 days treatment, read-out: 50% Cell Death CC50
Experimental Readout: CC50

Recorded CC50 of `FC(F)(F)c1cccc(Nc2nc(Nc3cccc(Cl)c3)nc(N3CCOCC3)n2)c1` , please.
136 µM

Next entry: `Cc1ccc(Nc2nc(NCc3ccccc3)nc(NN=Cc3ccc(F)cc3F)n2)cc1C`
836 µM

Next entry: `COc1ccc(C=NNc2nc(Nc3ccccc3)nc(Nc3ccc(C)cc3C)n2)c(OC)c1`
1.3 µM

Next entry: `CCCCN(CCCC)c1nc(NN=Cc2c[nH]c3ccccc23)nc(Nc2ccc([N+](=O)[O-])cc2)n1`
5.3 µM

---

Field: CC50. Provide a value for each of the compounds that follow.
- Test system: 2.2.15 cells
- Protocol Description: neutral red dye uptake cytotoxicity
- Assay type: cell-based
- Condition Details: 9 days treatment, read-out: 50% Cell Death CC50

Recorded CC50 of `Oc1ccccc1C=NNc1nc(Nc2ccccc2)nc(N2CCCCC2)n1` , please.
> 300 µM

Next entry: `CC(C)(C)Nc1nc(NCc2ccccc2)nc(NN=Cc2ccc3c(c2)OCO3)n1`
> 100 µM

Next entry: `O=C(CSc1nc(SCC(=O)Nc2ccccc2C(F)(F)F)nc(SCC(=O)Nc2ccccc2C(F)(F)F)n1)Nc1ccccc1C(F)(F)F`
> 300 µM

Next entry: `COc1c(Br)cc(Br)cc1C=NNc1nc(Nc2ccccc2)nc(N2CCCCC2)n1`
> 100 µM

Next entry: `Cc1ccc(Nc2nc(Nc3cccc(C(F)(F)F)c3)nc(N3CCOCC3)n2)cc1C`
96 µM

Next entry: `Cc1ccc(Nc2nc(NN=Cc3ccccc3O)nc(Nc3ccc([N+](=O)[O-])cc3)n2)cc1C`
77 µM

Next entry: `C(=Cc1ccccc1)C=NNc1nc(Nc2ccccc2)nc(Nc2ccccc2)n1`
265 µM

Next entry: `O=[N+]([O-])c1ccc(Nc2nc(NCc3ccccc3)nc(N3CCOCC3)n2)cc1`
218 µM
